Items are presented alongside their recorded Ki.
Biological target: hCA IX (Homo sapiens)
Experiment: stopped flow CO2 hydrase assay, hCA IX
Assay type: biochemical
Conditions: errors ±5–10% of the stated values

molecule: NS(=O)(=O)c1ccc(Nc2ncnc3ccc(-c4cccc([N+](=O)[O-])c4)cc23)cc1 [Compound 4d]
testSystem: hCA IX (Homo sapiens)
Ki, nM: 265
--
molecule: COc1ccc(-c2ccc3ncnc(Nc4ccc(S(N)(=O)=O)cc4)c3c2)cc1 [Compound 4e]
testSystem: hCA IX (Homo sapiens)
Ki, nM: 86.9
--
molecule: NS(=O)(=O)c1cccc(Nc2ncnc3ccc(Br)cc23)c1 [Compound 3b]
testSystem: hCA IX (Homo sapiens)
Ki, nM: 95.3

###

Target: UniProtKB P00915
Sequence (P00915 whole entry): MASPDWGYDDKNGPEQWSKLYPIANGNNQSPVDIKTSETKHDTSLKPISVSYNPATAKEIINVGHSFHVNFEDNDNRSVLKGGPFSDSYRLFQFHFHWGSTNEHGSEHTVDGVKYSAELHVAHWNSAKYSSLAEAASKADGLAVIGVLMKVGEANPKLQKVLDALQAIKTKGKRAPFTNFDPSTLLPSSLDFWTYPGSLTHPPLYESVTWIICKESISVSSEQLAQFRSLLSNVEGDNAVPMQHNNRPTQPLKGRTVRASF
Experiment: stopped flow CO2 hydrase assay, hCA I
Format: biochemical
Details: stopped flow CO2 hydrase assay; errors ±5–10% of the stated values
Description: The activity of the CA-catalyzed CO2 hydration reaction was evaluated employing an applied photophysics stopped-flow instrument. […] A minimum of six traces of the starting 5–10% of the reaction were analysed to measure the initial velocity for each inhibitor. In a similar manner, the uncatalyzed rates were evaluated and subtracted from the overall calculated rates. […]
Items are presented alongside their recorded Ki.

smilesRecord: NS(=O)(=O)c1ccc(Nc2ncnc3cc(-c4cccc(O)c4)ccc23)cc1
unit: nM
Ki: 361

smilesRecord: NS(=O)(=O)c1ccc(Nc2ncnc3ccc(-c4ccsc4)cc23)cc1
unit: nM
Ki: 60.9

smilesRecord: COc1ccc(-c2ccc3ncnc(Nc4ccc(S(N)(=O)=O)cc4)c3c2)cc1
unit: nM
Ki: 91.2

smilesRecord: NS(=O)(=O)c1ccc(Nc2ncnc3ccc(-c4ccc(F)cc4)cc23)cc1
unit: nM
Ki: 931

smilesRecord: NS(=O)(=O)c1ccc(Nc2ncnc3ccc(-c4ccc(N5CCOCC5)cc4)cc23)cc1
unit: nM
Ki: 548
